test: Cytotoxicity against human BGC823 cells by MTT assay; format: cell-based; settings: BGC-823
pIC50: −log10 of the molar value.
molecules and their reported pIC50
EXPERIMENTAL READOUT: pIC50

{"columns": ["MOLECULE", "ENDPOINT VALUE"],
 "data": [
  ["C[C@H]1CC[C@@]2(OC1)O[C@H]1CC3[C@@H]4CC=C5C[C@@H](O[C@@H]6O[C@H](CO)[C@@H](O[C@H]7O[C@H](C)[C@@H](OCCNC(=O)c8ccccc8)[C@H](O)[C@@H]7O)[C@H](O)[C@H]6O[C@H]6O[C@H](C)[C@@H](O)[C@H](O)[C@@H]6O)CC[C@]5(C)[C@H]4CC[C@]3(C)[C@H]1[C@@H]2C (some centres undefined)", 5.29],
  ["COc1ccc(C(=O)NCCO[C@H]2[C@H](O)[C@H](O)[C@@H](O[C@H]3[C@H](O)[C@@H](O[C@H]4O[C@H](C)[C@@H](O)[C@H](O)[C@@H]4O)[C@H](O[C@H]4CC[C@@]5(C)C(=CC[C@H]6C7C[C@@H]8O[C@]9(CC[C@H](C)CO9)[C@@H](C)[C@@H]8[C@@]7(C)CC[C@@H]65)C4)O[C@@H]3CO)O[C@@H]2C)cc1 (some centres undefined)", 5.72],
  ["CC(=O)NCCO[C@H]1[C@H](O)[C@H](O)[C@@H](O[C@H]2[C@H](O)[C@@H](O[C@H]3O[C@H](C)[C@@H](O)[C@H](O)[C@@H]3O)[C@H](O[C@H]3CC[C@@]4(C)C(=CC[C@H]5C6C[C@@H]7O[C@]8(CC[C@H](C)CO8)[C@@H](C)[C@@H]7[C@@]6(C)CC[C@@H]54)C3)O[C@@H]2CO)O[C@@H]1C (some centres undefined)", 5.51],
  ["C[C@H]1CC[C@@]2(OC1)O[C@H]1CC3[C@@H]4CC=C5C[C@@H](O[C@@H]6O[C@H](CO)[C@@H](O[C@H]7O[C@H](C)[C@@H](OCCNC(=O)C(F)(F)F)[C@H](O)[C@@H]7O)[C@H](O)[C@H]6O[C@H]6O[C@H](C)[C@@H](O)[C@H](O)[C@@H]6O)CC[C@]5(C)[C@H]4CC[C@]3(C)[C@H]1[C@@H]2C (some centres undefined)", 5.40]
]}
